Biological target: Proteasome subunit beta type-10 (Homo sapiens)
Sequence (P40306 whole entry): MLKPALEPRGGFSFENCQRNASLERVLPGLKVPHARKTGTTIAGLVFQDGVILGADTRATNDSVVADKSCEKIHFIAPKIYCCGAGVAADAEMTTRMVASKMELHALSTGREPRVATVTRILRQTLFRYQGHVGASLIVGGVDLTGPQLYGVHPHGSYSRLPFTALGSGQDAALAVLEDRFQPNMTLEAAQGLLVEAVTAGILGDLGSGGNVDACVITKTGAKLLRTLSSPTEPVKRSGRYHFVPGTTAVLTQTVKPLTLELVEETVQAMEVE
Assay: Inhibition of 20S proteasome beta 2i (unknown origin) after 1 hr by fluorescence based assay
reported_endpoint: IC50

Inquiry: IC50 lookup needed for CC(C)C[C@H](NC(=O)[C@@H](NC(=O)c1cccc(-c2ccccc2)n1)[C@@H](C)O)B(O)O , thanks.
Reply text: 10 to 30 nM

----------
target: Proteasome subunit beta type-8 (Homo sapiens, UniProt P28062); assay: Inhibition of 20S proteasome beta 5i (unknown origin) after 1 hr by fluorescence based assay
Sequence (P28062 whole entry): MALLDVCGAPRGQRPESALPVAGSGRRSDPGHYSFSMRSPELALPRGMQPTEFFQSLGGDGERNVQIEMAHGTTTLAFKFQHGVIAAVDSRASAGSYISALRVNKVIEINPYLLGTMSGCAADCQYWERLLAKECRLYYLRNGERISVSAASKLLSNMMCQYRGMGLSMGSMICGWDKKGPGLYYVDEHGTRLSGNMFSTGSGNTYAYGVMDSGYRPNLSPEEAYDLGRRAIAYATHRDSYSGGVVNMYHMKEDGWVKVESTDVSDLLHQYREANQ
reported_endpoint: IC50 (nM)
Could you give me the number in nM? Just the number is fine.

Inquiry: IC50 lookup needed for COc1ccc([C@@H](O)[C@H](NC(=O)[C@H](C)NC(=O)CN2CCOCC2)C(=O)N[C@@H](CC2=CCCC2)C(=O)[C@@]2(C)CO2)cc1 , thanks.
Reply text: 39

----------
target: Proteasome subunit beta type-8 (Homo sapiens); assay: Inhibition of human 20S proteasome beta 5i
reported_endpoint: pIC50
Would you please state pIC50, meaning minus log10 of the concentration in mol/L, as a bare number?

Consider the reported pIC50 for these compounds:
>  <structure_smiles>
Cc1c(CCC(=O)O)c(=O)oc2cc3occ(-c4ccccc4)c3cc12

>  <experimental_value>
5.80

$$$$
>  <structure_smiles>
Cc1c(Cc2nsc(=O)o2)c(=O)oc2cc3occ(-c4ccccc4)c3cc12

>  <experimental_value>
6.92

$$$$

Inquiry: // pIC50 lookup, key: Cc1c(C2CCCC2)c(=O)oc2cc3occ(-c4ccccc4)c3cc12
Reply text: 7.89

Inquiry: State the recorded pIC50 for this entry: Cc1c(CCC(=O)ON2C(=O)CCC2=O)c(=O)oc2cc3occ(-c4ccccc4)c3cc12
Reply text: 8.05
